Test system: SW-620
experimental-protocol: cells
Type: cell-based
study-conditions: Homo sapiens; SW-620; 10 μM; read-out: growth inhibition % (GI%)
property-label: inhibition at 10 µM

> print(dat)
                                   compound  assay.result
1  O=C(CSc1nc2ccccc2c(=O)n1-c1ccc(Cl)cc1)NN=Cc1ccc(Oc2ccc(Br)cc2)cc1 [6e]         < 15%

Asked: Report the value of inhibition at 10 µM obtained on SW-620 for COc1ccc(Oc2ccc(C=NNC(=O)CSc3nc4ccccc4c(=O)n3-c3ccccc3)cc2)cc1 [6c] .
Given back: < 15%

Asked: Report the value of inhibition at 10 µM obtained on SW-620 for CN1CCN(c2ccc(C=NNC(=O)CSc3nc4ccccc4c(=O)n3-c3ccccc3)cc2)CC1 [6i] .
Given back: < 15%
